# Study Target: Epidermal growth factor receptor (Homo sapiens)
Measurement Label: pIC50
// returns pIC50 (minus log10 of molar concentration), number only

State the measured pIC50 (Epidermal growth factor receptor (Homo sapiens)) of `CN1C(=O)[C@@H](N2CCc3c(nn(Cc4ccccc4)c3Br)C2=O)COc2ccccc21`
6.00

---

# Study Target: Beta-adrenergic receptor kinase 1 (Homo sapiens, UniProt P25098)
# Sequence (P25098 whole entry): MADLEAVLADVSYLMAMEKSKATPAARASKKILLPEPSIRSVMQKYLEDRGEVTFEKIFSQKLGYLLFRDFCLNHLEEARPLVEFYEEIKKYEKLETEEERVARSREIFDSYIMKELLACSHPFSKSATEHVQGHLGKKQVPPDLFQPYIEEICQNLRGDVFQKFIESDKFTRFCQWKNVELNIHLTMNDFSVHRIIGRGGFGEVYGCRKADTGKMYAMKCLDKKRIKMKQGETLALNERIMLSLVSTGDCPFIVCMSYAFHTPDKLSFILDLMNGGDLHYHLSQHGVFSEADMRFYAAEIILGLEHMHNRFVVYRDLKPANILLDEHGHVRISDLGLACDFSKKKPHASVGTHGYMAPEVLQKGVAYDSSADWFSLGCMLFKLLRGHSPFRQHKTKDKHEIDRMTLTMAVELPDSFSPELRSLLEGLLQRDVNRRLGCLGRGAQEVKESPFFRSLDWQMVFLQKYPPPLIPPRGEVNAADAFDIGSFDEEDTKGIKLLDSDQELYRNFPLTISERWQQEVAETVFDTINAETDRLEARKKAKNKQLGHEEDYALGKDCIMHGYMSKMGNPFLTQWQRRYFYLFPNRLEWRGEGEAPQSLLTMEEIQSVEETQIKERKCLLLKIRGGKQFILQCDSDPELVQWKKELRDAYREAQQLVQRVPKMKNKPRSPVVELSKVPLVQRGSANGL
Measurement Label: pIC50
// returns pIC50 (minus log10 of molar concentration), number only

State the measured pIC50 (Beta-adrenergic receptor kinase 1 (Homo sapiens, UniProt P25098)) of `CN1C(=O)[C@@H](N2CCc3c(nn(Cc4ccccc4)c3Br)C2=O)COc2ccccc21`
6.00

---

# Study Target: Serine/threonine-protein kinase PLK4 (Homo sapiens, UniProt O00444)
# Sequence (O00444 whole entry): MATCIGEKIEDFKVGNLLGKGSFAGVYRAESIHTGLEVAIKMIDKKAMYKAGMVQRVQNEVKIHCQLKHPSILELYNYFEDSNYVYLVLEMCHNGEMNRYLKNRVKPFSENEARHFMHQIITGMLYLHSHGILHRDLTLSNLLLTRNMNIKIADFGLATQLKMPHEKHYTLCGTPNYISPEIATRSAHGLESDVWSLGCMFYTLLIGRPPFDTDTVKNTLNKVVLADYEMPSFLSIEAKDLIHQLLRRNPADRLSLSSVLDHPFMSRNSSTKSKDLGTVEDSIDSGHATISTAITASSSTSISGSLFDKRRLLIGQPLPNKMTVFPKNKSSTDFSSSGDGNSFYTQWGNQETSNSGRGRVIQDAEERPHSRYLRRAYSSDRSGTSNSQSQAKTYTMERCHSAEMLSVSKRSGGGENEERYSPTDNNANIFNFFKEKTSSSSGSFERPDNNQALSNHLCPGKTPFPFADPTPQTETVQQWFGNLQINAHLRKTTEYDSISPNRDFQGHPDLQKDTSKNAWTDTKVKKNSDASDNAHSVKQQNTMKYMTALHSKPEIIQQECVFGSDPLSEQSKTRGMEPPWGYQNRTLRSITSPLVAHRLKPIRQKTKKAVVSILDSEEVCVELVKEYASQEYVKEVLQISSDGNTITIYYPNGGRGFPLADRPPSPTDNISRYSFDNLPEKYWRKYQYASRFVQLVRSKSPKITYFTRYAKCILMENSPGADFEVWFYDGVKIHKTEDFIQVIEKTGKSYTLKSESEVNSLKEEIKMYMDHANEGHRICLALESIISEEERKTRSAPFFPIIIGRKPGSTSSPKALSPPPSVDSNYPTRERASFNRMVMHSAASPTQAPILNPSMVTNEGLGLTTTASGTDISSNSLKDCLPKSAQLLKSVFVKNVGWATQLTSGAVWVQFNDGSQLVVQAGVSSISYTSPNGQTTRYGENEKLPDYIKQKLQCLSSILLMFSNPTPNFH
Measurement Label: pIC50
// returns pIC50 (minus log10 of molar concentration), number only

Specify measured pIC50 for `CN1C(=O)[C@@H](N2CCc3c(nn(Cc4ccccc4)c3Br)C2=O)COc2ccccc21` .
6.00

---

# Study Target: Mitogen-activated protein kinase 10 (Homo sapiens, UniProt P53779)
# Sequence (P53779 whole entry): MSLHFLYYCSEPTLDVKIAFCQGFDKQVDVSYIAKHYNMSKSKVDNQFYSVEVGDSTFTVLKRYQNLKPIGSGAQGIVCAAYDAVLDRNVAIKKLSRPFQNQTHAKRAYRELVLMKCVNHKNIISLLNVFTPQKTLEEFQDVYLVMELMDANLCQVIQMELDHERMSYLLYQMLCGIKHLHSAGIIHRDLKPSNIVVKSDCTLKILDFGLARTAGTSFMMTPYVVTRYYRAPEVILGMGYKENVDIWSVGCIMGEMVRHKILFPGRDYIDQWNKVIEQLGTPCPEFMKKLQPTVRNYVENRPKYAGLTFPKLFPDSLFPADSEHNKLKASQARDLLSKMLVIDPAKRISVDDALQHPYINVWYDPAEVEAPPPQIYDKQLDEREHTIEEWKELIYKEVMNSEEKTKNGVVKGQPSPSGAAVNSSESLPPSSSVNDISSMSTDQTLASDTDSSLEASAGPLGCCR
# Protocol Notes: JNK3(MP10LGF2) Takeda global kinase panel
Measurement Label: IC50 (nM)
The reply should be a number in nM, with the unit left off.

Specify measured IC50 for `CN1C(=O)[C@@H](N2CCc3c(nn(Cc4ccccc4)c3Br)C2=O)COc2ccccc21` .
1000

---

# Study Target: Serine/threonine-protein kinase 4 (Homo sapiens)
# Sequence (Q13043 whole entry): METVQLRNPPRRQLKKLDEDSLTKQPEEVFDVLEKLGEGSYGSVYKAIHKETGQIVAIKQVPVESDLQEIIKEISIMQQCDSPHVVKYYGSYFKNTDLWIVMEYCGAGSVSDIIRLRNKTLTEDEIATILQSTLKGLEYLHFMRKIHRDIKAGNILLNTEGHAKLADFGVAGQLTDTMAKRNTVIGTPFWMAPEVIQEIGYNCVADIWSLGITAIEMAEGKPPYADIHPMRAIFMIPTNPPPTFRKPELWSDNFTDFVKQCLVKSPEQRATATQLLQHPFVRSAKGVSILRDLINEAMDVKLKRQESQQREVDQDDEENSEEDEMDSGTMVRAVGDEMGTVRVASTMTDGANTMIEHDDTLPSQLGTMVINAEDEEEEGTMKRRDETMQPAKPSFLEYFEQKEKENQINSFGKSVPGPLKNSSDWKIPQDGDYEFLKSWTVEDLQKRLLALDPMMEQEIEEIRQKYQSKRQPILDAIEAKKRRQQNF
Measurement Label: IC50 (µM)
The reply should be a number in µM, with the unit left off.

Specify measured IC50 for `CN1C(=O)[C@@H](N2CCc3c(nn(Cc4ccccc4)c3Br)C2=O)COc2ccccc21` .
1

---

# Study Target: Mitogen-activated protein kinase 3 (Homo sapiens)
# Sequence (P27361 whole entry): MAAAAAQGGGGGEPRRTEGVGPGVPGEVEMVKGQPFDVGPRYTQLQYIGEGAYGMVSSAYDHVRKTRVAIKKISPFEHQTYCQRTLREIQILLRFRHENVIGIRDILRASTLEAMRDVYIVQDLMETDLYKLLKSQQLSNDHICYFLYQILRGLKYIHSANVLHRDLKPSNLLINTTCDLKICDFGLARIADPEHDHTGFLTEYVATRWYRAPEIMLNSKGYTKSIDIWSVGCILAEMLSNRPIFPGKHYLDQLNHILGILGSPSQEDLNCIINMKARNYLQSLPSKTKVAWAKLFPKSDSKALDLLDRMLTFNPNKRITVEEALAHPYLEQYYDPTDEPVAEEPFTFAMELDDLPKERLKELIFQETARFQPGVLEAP
# Protocol Notes: ERK1(MAP3LGY1) Takeda global kinase panel
Measurement Label: pIC50
// returns pIC50 (minus log10 of molar concentration), number only

State the measured pIC50 (Mitogen-activated protein kinase 3 (Homo sapiens)) of `CN1C(=O)[C@@H](N2CCc3c(nn(Cc4ccccc4)c3Br)C2=O)COc2ccccc21`
6.00

---

# Study Target: Dual specificity tyrosine-phosphorylation-regulated kinase 1A (Homo sapiens)
Measurement Label: pIC50
// returns pIC50 (minus log10 of molar concentration), number only

State the measured pIC50 (Dual specificity tyrosine-phosphorylation-regulated kinase 1A (Homo sapiens)) of `CN1C(=O)[C@@H](N2CCc3c(nn(Cc4ccccc4)c3Br)C2=O)COc2ccccc21`
6.00

---

# Study Target: Aurora kinase B (Homo sapiens)
Measurement Label: IC50
Kindly report the value followed by its unit.

State the measured IC50 (Aurora kinase B (Homo sapiens)) of `CN1C(=O)[C@@H](N2CCc3c(nn(Cc4ccccc4)c3Br)C2=O)COc2ccccc21`
1000 nM

---

# Study Target: Mitogen-activated protein kinase kinase kinase kinase 5 (Homo sapiens)
# Sequence (Q9Y4K4 whole entry): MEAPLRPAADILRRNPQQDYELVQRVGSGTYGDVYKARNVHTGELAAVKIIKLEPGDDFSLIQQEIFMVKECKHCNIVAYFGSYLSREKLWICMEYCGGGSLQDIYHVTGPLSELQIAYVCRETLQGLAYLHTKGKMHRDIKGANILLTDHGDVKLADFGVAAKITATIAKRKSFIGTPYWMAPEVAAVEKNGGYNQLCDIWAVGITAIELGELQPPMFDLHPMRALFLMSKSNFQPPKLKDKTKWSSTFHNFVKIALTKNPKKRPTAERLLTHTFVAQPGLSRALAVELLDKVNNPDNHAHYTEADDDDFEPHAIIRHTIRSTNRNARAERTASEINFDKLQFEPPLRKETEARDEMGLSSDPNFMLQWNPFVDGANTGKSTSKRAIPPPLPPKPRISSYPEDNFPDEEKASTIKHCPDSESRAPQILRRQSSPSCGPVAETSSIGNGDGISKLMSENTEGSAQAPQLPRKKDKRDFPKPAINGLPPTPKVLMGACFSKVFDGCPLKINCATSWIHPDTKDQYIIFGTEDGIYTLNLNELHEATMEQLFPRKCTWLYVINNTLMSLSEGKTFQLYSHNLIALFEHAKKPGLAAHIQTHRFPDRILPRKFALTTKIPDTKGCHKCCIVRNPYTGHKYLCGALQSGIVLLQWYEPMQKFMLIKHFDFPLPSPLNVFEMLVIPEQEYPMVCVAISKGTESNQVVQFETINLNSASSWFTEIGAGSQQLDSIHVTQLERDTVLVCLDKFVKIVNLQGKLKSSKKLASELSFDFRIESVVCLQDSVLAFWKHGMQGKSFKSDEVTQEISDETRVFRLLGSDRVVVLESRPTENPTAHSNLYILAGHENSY
# Protocol Notes: KHS1(M4K5LGY1) Takeda global kinase panel
Measurement Label: IC50
Kindly report the value followed by its unit.

Specify measured IC50 for `CN1C(=O)[C@@H](N2CCc3c(nn(Cc4ccccc4)c3Br)C2=O)COc2ccccc21` .
1 µM

---

# Study Target: UniProt:P22607
Measurement Label: IC50 (nM)
The reply should be a number in nM, with the unit left off.

State the measured IC50 (UniProt:P22607) of `CN1C(=O)[C@@H](N2CCc3c(nn(Cc4ccccc4)c3Br)C2=O)COc2ccccc21`
1000

---

# Study Target: Mitogen-activated protein kinase 1 (Homo sapiens, UniProt P28482)
# Protocol Notes: ERK2(MAP1LGY1) Takeda global kinase panel
Measurement Label: IC50 (µM)
The reply should be a number in µM, with the unit left off.

Specify measured IC50 for CN1C(=O)[C@@H](N2CCc3c(nn(Cc4ccccc4)c3Br)C2=O)COc2ccccc21 [TP-030-2] .
1

---

# Study Target: Tyrosine-protein kinase HCK (Homo sapiens)
# Sequence (P08631 whole entry): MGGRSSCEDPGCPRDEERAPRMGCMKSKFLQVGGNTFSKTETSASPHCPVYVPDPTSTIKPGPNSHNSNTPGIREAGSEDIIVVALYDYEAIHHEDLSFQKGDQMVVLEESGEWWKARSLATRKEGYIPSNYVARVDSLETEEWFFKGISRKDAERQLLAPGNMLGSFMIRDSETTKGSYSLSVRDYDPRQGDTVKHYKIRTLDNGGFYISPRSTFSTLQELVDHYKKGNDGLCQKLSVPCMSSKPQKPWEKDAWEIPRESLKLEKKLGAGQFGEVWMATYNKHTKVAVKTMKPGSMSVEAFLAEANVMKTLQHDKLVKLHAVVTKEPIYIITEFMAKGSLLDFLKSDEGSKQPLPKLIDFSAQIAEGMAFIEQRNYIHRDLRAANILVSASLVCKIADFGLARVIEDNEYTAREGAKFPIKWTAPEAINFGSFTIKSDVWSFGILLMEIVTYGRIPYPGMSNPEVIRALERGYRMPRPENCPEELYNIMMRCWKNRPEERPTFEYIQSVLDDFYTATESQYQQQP
Measurement Label: IC50 (nM)
The reply should be a number in nM, with the unit left off.

Specify measured IC50 for `CN1C(=O)[C@@H](N2CCc3c(nn(Cc4ccccc4)c3Br)C2=O)COc2ccccc21` .
1000

---

# Study Target: Protein kinase C delta type (Homo sapiens, UniProt Q05655)
# Sequence (Q05655 whole entry): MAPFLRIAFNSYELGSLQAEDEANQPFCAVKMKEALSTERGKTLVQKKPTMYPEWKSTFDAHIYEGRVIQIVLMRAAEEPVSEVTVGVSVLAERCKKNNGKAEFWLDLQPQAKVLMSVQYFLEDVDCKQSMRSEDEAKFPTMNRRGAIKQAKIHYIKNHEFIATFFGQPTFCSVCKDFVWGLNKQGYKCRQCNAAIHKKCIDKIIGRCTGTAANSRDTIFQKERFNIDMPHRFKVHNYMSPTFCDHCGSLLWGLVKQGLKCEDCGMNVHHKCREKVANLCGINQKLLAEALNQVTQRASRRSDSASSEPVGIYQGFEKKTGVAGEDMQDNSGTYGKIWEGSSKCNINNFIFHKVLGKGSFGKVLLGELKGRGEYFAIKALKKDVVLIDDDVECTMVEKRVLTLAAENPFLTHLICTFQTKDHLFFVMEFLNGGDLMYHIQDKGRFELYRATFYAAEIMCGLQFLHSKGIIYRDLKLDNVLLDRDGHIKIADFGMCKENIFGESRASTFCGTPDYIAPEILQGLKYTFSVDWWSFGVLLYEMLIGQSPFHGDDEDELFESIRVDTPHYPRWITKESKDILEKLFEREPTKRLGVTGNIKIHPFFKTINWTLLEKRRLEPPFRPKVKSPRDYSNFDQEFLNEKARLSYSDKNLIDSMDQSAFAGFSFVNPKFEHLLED
# Protocol Notes: PKCdelta(PRKDPFP1) Takeda global kinase panel
Measurement Label: pIC50
// returns pIC50 (minus log10 of molar concentration), number only

State the measured pIC50 (Protein kinase C delta type (Homo sapiens, UniProt Q05655)) of CN1C(=O)[C@@H](N2CCc3c(nn(Cc4ccccc4)c3Br)C2=O)COc2ccccc21 [TP-030-2]
6.00

---

# Study Target: Cyclin-dependent kinase 17 (Homo sapiens)
Measurement Label: pIC50
// returns pIC50 (minus log10 of molar concentration), number only

State the measured pIC50 (Cyclin-dependent kinase 17 (Homo sapiens)) of `CN1C(=O)[C@@H](N2CCc3c(nn(Cc4ccccc4)c3Br)C2=O)COc2ccccc21`
6.00

---

# Study Target: Proto-oncogene tyrosine-protein kinase ROS (Homo sapiens, UniProt P08922)
Measurement Label: pIC50
// returns pIC50 (minus log10 of molar concentration), number only

State the measured pIC50 (Proto-oncogene tyrosine-protein kinase ROS (Homo sapiens, UniProt P08922)) of `CN1C(=O)[C@@H](N2CCc3c(nn(Cc4ccccc4)c3Br)C2=O)COc2ccccc21`
6.00

---

# Study Target: Dual specificity tyrosine-phosphorylation-regulated kinase 2 (Homo sapiens, UniProt Q92630)
# Sequence (Q92630 whole entry): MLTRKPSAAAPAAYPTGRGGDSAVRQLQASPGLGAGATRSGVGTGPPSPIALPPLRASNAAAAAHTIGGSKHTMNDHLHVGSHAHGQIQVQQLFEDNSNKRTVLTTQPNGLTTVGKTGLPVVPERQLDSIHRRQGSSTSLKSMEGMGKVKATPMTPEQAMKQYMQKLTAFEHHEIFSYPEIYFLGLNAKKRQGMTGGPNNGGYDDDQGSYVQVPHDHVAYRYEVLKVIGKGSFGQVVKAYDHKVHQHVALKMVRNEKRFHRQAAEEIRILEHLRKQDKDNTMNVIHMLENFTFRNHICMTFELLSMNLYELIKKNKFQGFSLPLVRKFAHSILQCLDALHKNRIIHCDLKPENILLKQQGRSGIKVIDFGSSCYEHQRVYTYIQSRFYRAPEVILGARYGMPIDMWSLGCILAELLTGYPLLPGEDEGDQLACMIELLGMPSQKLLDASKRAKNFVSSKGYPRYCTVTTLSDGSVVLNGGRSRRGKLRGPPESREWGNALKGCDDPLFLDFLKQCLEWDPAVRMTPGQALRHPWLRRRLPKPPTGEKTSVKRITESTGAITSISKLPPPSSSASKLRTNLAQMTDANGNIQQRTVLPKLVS
# Protocol Notes: DYRK2(DYR2LGY1) Takeda global kinase panel
Measurement Label: IC50 (nM)
The reply should be a number in nM, with the unit left off.

Specify measured IC50 for `CN1C(=O)[C@@H](N2CCc3c(nn(Cc4ccccc4)c3Br)C2=O)COc2ccccc21` .
1000

---

# Study Target: G protein-coupled receptor kinase 4 (Homo sapiens)
# Protocol Notes: GRK4(GRK4LGRI) Takeda global kinase panel
Measurement Label: pIC50
// returns pIC50 (minus log10 of molar concentration), number only

Specify measured pIC50 for CN1C(=O)[C@@H](N2CCc3c(nn(Cc4ccccc4)c3Br)C2=O)COc2ccccc21 [TP-030-2] .
6.00

---

# Study Target: UniProtKB Q9UIK4
# Sequence (Q9UIK4 whole entry): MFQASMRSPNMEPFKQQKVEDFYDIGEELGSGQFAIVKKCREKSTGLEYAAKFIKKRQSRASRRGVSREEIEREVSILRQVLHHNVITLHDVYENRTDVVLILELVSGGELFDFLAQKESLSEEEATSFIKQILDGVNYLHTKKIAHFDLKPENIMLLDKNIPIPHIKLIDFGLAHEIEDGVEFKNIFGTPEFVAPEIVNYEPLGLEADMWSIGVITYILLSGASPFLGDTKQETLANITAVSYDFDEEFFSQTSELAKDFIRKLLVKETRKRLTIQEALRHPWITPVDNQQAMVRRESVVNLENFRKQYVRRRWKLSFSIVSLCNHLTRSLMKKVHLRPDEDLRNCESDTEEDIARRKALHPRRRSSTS
Measurement Label: pIC50
// returns pIC50 (minus log10 of molar concentration), number only

State the measured pIC50 (UniProtKB Q9UIK4) of `CN1C(=O)[C@@H](N2CCc3c(nn(Cc4ccccc4)c3Br)C2=O)COc2ccccc21`
6.00

---

# Study Target: cAMP-dependent protein kinase catalytic subunit alpha (Homo sapiens, UniProt P17612)
# Protocol Notes: PKAalpha(PRCALGH1) Takeda global kinase panel
Measurement Label: IC50 (nM)
The reply should be a number in nM, with the unit left off.

Specify measured IC50 for CN1C(=O)[C@@H](N2CCc3c(nn(Cc4ccccc4)c3Br)C2=O)COc2ccccc21 [TP-030-2] .
1000

All values here come from ChEMBL document CHEMBL4507326.
